Where these numbers come from: patent US4703107A

- run.parameters: pH 8.1, aqueous buffer
Where a name gives a salt, the structure may show the parent alone. Where a SMILES comes first, the peptide text is derived from it. The star is where a group is joined. dGluconoyl = O=C([C@H](O)[C@@H](O)[C@H](O)[C@H](O)CO)*; NH(9-Et-carbazol-3-yl) = CCn1c2ccccc2c2cc(N*)ccc21
result.type: solubility (mM)

compound	result.type	test.value
CCn1c2ccccc2c2cc(NC(=O)[C@H](CCCNC(=N)N)NC(=O)[C@H](Cc3ccccc3)NC(=O)[C@@H](NC(=O)CNC(=O)[C@H](O)[C@@H](O)[C@H](O)[C@H](O)CO)C(C)C)ccc21 [GlcA--Gly--Val--Phe--Arg--AEC] (dGluconoyl-GVFR-{NH(9-Et-carbazol-3-yl)})	solubility	3.6
CCn1c2ccccc2c2cc(NC(=O)[C@H](CCCNC(=N)N)NC(=O)[C@H](CC(C)C)NC(=O)[C@@H](NC(=O)[C@H](O)[C@@H](O)[C@H](O)[C@H](O)CO)C(C)C)ccc21	solubility	227
CC[C@H](C)[C@H](NC(=O)[C@H](O)[C@@H](O)[C@H](O)[C@H](O)CO)C(=O)N[C@@H](Cc1ccccc1)C(=O)N[C@@H](CCCCN)C(=O)Nc1ccc2c(c1)c1ccccc1n2CC [GlcA--Ile--Phe--Lys--AEC, Glc A-Ile-Phe-Lys-AEC, HCl]	solubility	0.54
CCn1c2ccccc2c2cc(NC(=O)[C@H](CCCCN)NC(=O)[C@H](CC(C)C)NC(=O)[C@@H](NC(=O)OC(C)(C)C)C(C)C)ccc21 [Boc--Val--Leu--Lys--AEC, reference compound]	solubility	2.5

* * *

- run.parameters: pH 8.1, aqueous buffer
Where a SMILES comes first, the peptide text is derived from it. The star is where a group is joined. dGluconoyl = O=C([C@H](O)[C@@H](O)[C@H](O)[C@H](O)CO)*; NH(9-Et-carbazol-3-yl) = CCn1c2ccccc2c2cc(N*)ccc21
log10 of solubility values by entry
result.type: log10 of solubility (log10 of the value in mM)

molecule	log10 of solubility
CCn1c2ccccc2c2cc(NC(=O)[C@H](CCCCN)NC(=O)[C@H](Cc3ccccc3)NC(=O)[C@@H](NC(=O)[C@H](O)[C@@H](O)[C@H](O)[C@H](O)CO)C(C)C)ccc21	2.22
CCn1c2ccccc2c2cc(NC(=O)[C@H](CCCCN)NC(=O)[C@@H]3CCCN3C(=O)CNC(=O)OCc3ccccc3)ccc21 [Z--Gly--Pro--Lys--AEC, reference compound]	-0.70
CCn1c2ccccc2c2cc(NC(=O)[C@H](CCCCN)NC(=O)CNC(=O)[C@H](CO)NC(=O)[C@H](O)[C@@H](O)[C@H](O)[C@H](O)CO)ccc21	1.73
CCn1c2ccccc2c2cc(NC(=O)[C@H](CCCCN)NC(=O)[C@@H]3CCCN3C(=O)CNC(=O)[C@H](O)[C@@H](O)[C@H](O)[C@H](O)CO)ccc21	2.58
CC[C@H](C)[C@H](NC(=O)CNC(=O)[C@H](O)[C@@H](O)[C@H](O)[C@H](O)CO)C(=O)N[C@@H](Cc1ccccc1)C(=O)N[C@@H](CCCCN)C(=O)Nc1ccc2c(c1)c1ccccc1n2CC [GlcA--Gly--Ile--Phe--Lys--AEC] (dGluconoyl-GIFK-{NH(9-Et-carbazol-3-yl)})	0.40
CCn1c2ccccc2c2cc(NC(=O)[C@H](CCCNC(=N)N)NC(=O)CNC(=O)[C@H](CC(C)C)NC(=O)[C@@H](NC(=O)[C@H](O)[C@@H](O)[C@H](O)[C@H](O)CO)C(C)C)ccc21 [GlcA--Val--Leu--Gly--Arg--AEC] (dGluconoyl-VLGR-{NH(9-Et-carbazol-3-yl)})	1.83
CCn1c2ccccc2c2cc(NC(=O)[C@H](CCCCN)NC(=O)[C@H](CC(C)C)NC(=O)[C@@H](NC(=O)[C@H](O)[C@@H](O)[C@H](O)[C@H](O)CO)C(C)C)ccc21	2.40
CCn1c2ccccc2c2cc(NC(=O)[C@H](CCCCN)NC(=O)[C@H](Cc3ccccc3)NC(=O)[C@@H](NC(=O)CNC(=O)[C@H](O)[C@@H](O)[C@H](O)[C@H](O)CO)C(C)C)ccc21 [GlcA--Gly--Val--Phe--Lys--AEC] (dGluconoyl-GVFK-{NH(9-Et-carbazol-3-yl)})	0.62

* * *

solubility values by entry
- run.parameters: Table IV; same values as Table I
Where a SMILES comes first, the peptide text is derived from it. The star is where a group is joined. dGluconoyl = O=C([C@H](O)[C@@H](O)[C@H](O)[C@H](O)CO)*; NH(9-Et-carbazol-3-yl) = CCn1c2ccccc2c2cc(N*)ccc21

compound	units.label	solubility
CCn1c2ccccc2c2cc(NC(=O)[C@H](CCCCN)NC(=O)[C@H](CC(C)C)NC(=O)[C@@H](NC(=O)[C@H](O)[C@@H](O)[C@H](O)[C@H](O)CO)C(C)C)ccc21	mM	250
CCn1c2ccccc2c2cc(NC(=O)[C@H](CCCNC(=N)N)NC(=O)[C@H](CC(C)C)NC(=O)[C@@H](NC(=O)[C@H](O)[C@@H](O)[C@H](O)[C@H](O)CO)C(C)C)ccc21	mM	227
CCn1c2ccccc2c2cc(NC(=O)[C@H](CCCNC(=N)N)NC(=O)CNC(=O)[C@H](CC(C)C)NC(=O)[C@@H](NC(=O)[C@H](O)[C@@H](O)[C@H](O)[C@H](O)CO)C(C)C)ccc21 [GlcA--Val--Leu--Gly--Arg--AEC] (dGluconoyl-VLGR-{NH(9-Et-carbazol-3-yl)})	mM	67
CCn1c2ccccc2c2cc(NC(=O)[C@H](CCCNC(=N)N)NC(=O)[C@H](Cc3ccccc3)NC(=O)[C@@H](NC(=O)[C@H](O)[C@@H](O)[C@H](O)[C@H](O)CO)C(C)C)ccc21	mM	100
CC[C@H](C)[C@H](NC(=O)[C@H](O)[C@@H](O)[C@H](O)[C@H](O)CO)C(=O)N[C@@H](CC(C)C)C(=O)N[C@@H](CCCNC(=N)N)C(=O)Nc1ccc2c(c1)c1ccccc1n2CC	mM	143
CCn1c2ccccc2c2cc(NC(=O)[C@H](CCCCN)NC(=O)[C@H](Cc3ccccc3)NC(=O)[C@@H](NC(=O)CNC(=O)[C@H](O)[C@@H](O)[C@H](O)[C@H](O)CO)C(C)C)ccc21 [GlcA--Gly--Val--Phe--Lys--AEC] (dGluconoyl-GVFK-{NH(9-Et-carbazol-3-yl)})	mM	4.2
CCn1c2ccccc2c2cc(NC(=O)[C@H](CCCNC(=N)N)NC(=O)[C@H](Cc3ccccc3)NC(=O)[C@@H](NC(=O)CNC(=O)[C@H](O)[C@@H](O)[C@H](O)[C@H](O)CO)C(C)C)ccc21 [GlcA--Gly--Val--Phe--Arg--AEC] (dGluconoyl-GVFR-{NH(9-Et-carbazol-3-yl)})	mM	3.6
CCn1c2ccccc2c2cc(NC(=O)[C@H](CCCCN)NC(=O)[C@@H]3CCCN3C(=O)CNC(=O)[C@H](O)[C@@H](O)[C@H](O)[C@H](O)CO)ccc21	mM	380
CCn1c2ccccc2c2cc(NC(=O)[C@H](CCCCN)NC(=O)[C@H](Cc3ccccc3)NC(=O)[C@@H](NC(=O)[C@H](O)[C@@H](O)[C@H](O)[C@H](O)CO)C(C)C)ccc21	mM	165
CC[C@H](C)[C@H](NC(=O)[C@H](O)[C@@H](O)[C@H](O)[C@H](O)CO)C(=O)N[C@@H](CC(C)C)C(=O)N[C@@H](CCCCN)C(=O)Nc1ccc2c(c1)c1ccccc1n2CC	mM	94
